- System: panel of nearly 500 cancer cell lines
- assay: Cancer Cell Line Encyclopedia profiling, 3-day CellTiter-Glo
- Type: cell-based
- measurement setup: Homo sapiens, SJSA-1
EC50 values, listed per item

[
  {
    "molecule": "CC(=O)c1c(C)c2cnc(Nc3ccc(N4CCNCC4)cn3)nc2n(C2CCCC2)c1=O [Palbociclib, reference compound]",
    "assay value": "> 8000 nM"
  }
]

Then this molecule:
Input: Bench note: what EC50 did CN(C)C(=O)c1cc2cnc(Nc3ccc(N4CCNCC4)cn3)nc2n1C1CCCC1 show?
Output: 1180 nM

* * *

- Test system: panel of nearly 500 cancer cell lines
- assay: Cancer Cell Line Encyclopedia profiling, 3-day CellTiter-Glo
- Format: cell-based
- measurement setup: tc71 (bone); read-out: IC50
measurement type: IC50

Input: Bench note: what IC50 did CC(=O)c1c(C)c2cnc(Nc3ccc(N4CCNCC4)cn3)nc2n(C2CCCC2)c1=O show?
Output: > 8 µM
